All values here come from ChEMBL document CHEMBL1126033.

# experimental-details: Average peak plasma drug concentration after id dose of 10 mg/kg in ferrets(Plasma samples collected from arterial blood).
# condition-label: ferret, plasma (from arterial blood)
quantity-measured: Cmax (ng/mL)

CCCC[C@H](N[C@@H](Cc1ccccc1)C(=O)N1CCC(OCOC)CC1)C(=O)N[C@@H](CC1CCCCC1)[C@@H](O)C[C@H](NC(=O)OCCN(C)C)C(C)C : 2070

I. CCCC[C@H](O[C@@H](Cc1ccccc1)C(=O)N1CCC(OCOC)CC1)C(=O)N[C@@H](CC1CCCCC1)[C@@H](O)C[C@H](C(=O)NCCCN(C)C)C(C)C
II. CCCC[C@H](O[C@@H](Cc1ccccc1)C(=O)N1CCC(OCOC)CC1)C(=O)N[C@@H](CC1CCCCC1)[C@@H](O)C[C@H](NC(=O)OCCN(C)C)C(C)C
For I and II , which recorded Cmax is lower? Choose, then provide that item's label. II
(II: 1190 ng/mL, I: 5050 ng/mL)

I. CCCC[C@H](O[C@@H](Cc1ccccc1)C(=O)N1CCC(OCOC)CC1)C(=O)N[C@@H](CC1CCCCC1)[C@@H](O)C[C@H](C(=O)NCCCN1CCOCC1)C(C)C
II. CCCC[C@H](O[C@@H](Cc1ccccc1)C(=O)N1CCC(OCOC)CC1)C(=O)N[C@@H](CC1CCCCC1)[C@@H](O)C[C@H](C(=O)NCCCn1ccnc1)C(C)C
For I and II , which recorded Cmax is lower? Choose, then provide that item's label. II

---

# experimental-details: Average peak plasma drug concentration after iv dose of 0.3 mg/kg in ferrets.
# condition-label: ferret, in vivo
quantity-measured: Cmax (ng/mL)
Give your result in ng/mL as a bare value.

Quick check: Cmax of CCCC[C@H](N[C@@H](Cc1ccccc1)C(=O)N1CCC(OCOC)CC1)C(=O)N[C@@H](CC1CCCCC1)[C@@H](O)C[C@H](C(=O)NCCCN1CCOCC1)C(C)C ? 1310

---

# assay-target: Renin (Homo sapiens)
# Sequence (P00797 whole entry): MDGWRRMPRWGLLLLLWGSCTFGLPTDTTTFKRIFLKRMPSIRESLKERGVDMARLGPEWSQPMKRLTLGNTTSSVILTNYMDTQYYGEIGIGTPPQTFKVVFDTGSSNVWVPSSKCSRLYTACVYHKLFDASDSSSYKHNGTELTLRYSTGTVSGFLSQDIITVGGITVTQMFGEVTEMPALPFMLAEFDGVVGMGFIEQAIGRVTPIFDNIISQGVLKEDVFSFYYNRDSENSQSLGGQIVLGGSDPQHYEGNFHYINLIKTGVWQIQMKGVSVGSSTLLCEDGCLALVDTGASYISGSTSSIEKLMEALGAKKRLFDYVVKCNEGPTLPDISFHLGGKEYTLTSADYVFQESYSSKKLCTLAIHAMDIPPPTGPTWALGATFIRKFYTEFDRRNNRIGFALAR
# Format: cell-free, Plasma
quantity-measured: IC50 (nM)

Worked set:
CCCC[C@H](O[C@@H](Cc1ccccc1)C(=O)N1CCC(OCOC)CC1)C(=O)N[C@@H](CC1CCCCC1)[C@@H](O)C[C@H](C(=O)NCCN1CCOCC1)C(C)C : 3.7
CCCC[C@H](O[C@@H](Cc1ccccc1)C(=O)N1CCC(OCOC)CC1)C(=O)N[C@@H](CC1CCCCC1)[C@@H](O)C[C@H](NC(=O)OCCN1CCCC1)C(C)C : 13
CCCC[C@H](O[C@@H](Cc1ccccc1)C(=O)N1CCC(OCOC)CC1)C(=O)N[C@@H](CC1CCCCC1)[C@@H](O)C[C@H](C(=O)N(C)CCN(C)C)C(C)C : 290
CCCC[C@H](O[C@@H](Cc1ccccc1)C(=O)N1CCC(OCOC)CC1)C(=O)N[C@@H](CC1CCCCC1)[C@@H](O)C[C@H](C(=O)NCCc1ccccn1)C(C)C : 5.1
CCCCC(=O)N[C@@H](C[C@H](O)[C@H](CC1CCCCC1)NC(=O)[C@H](Cc1c[nH]cn1)NC(=O)[C@H](Cc1ccccc1)NC(=O)OC(C)(C)C)C(C)C : 200

I. CCCC[C@H](N[C@@H](Cc1ccccc1)C(=O)N1CCC(OCOC)CC1)C(=O)N[C@@H](CC1CCCCC1)[C@@H](O)C[C@H](C(=O)NCCCn1ccnc1)C(C)C
II. CCCC[C@H](O[C@@H](Cc1ccccc1)C(=O)N1CCC(OCOC)CC1)C(=O)N[C@@H](CC1CCCCC1)[C@@H](O)C[C@H](NC(=O)OCc1ccccc1)C(C)C
For I and II , which recorded IC50 is lower? Choose, then provide that item's label. I
(I: 7.6 nM, II: 83 nM)

1. CCCC[C@H](O[C@@H](Cc1ccccc1)C(=O)N1CCC(OCOC)CC1)C(=O)N[C@@H](CC1CCCCC1)[C@@H](O)C[C@H](NC(=O)NCCC)C(C)C
2. CCCC[C@H](O[C@@H](Cc1ccccc1)C(=O)N1CCC(OCOC)CC1)C(=O)N[C@@H](CC1CCCCC1)[C@@H](O)C[C@H](C(=O)NCCCN1CCOCC1)C(C)C
For 1 and 2 , which recorded IC50 is lower? Choose, then provide that item's label. 2

1. CC(C)[C@H](C[C@H](O)[C@H](CC1CCCCC1)NC(=O)[C@H](Cc1c[nH]cn1)NC(=O)[C@H](Cc1ccccc1)NC(=O)OC(C)(C)C)NC(=O)OCCN(C)C
2. CCCC[C@H](O[C@@H](Cc1ccccc1)C(=O)N1CCC(OCOC)CC1)C(=O)N[C@@H](CC1CCCCC1)[C@@H](O)C[C@H](C(=O)NCCCN(C)C)C(C)C
3. CCCCC(=O)N[C@@H](C[C@H](O)[C@H](CC1CCCCC1)NC(=O)[C@H](CCCC)O[C@@H](Cc1ccccc1)C(=O)N1CCC(OCOC)CC1)C(C)C
Please list these in order of increasing IC50. Thank you! Thanks in advance for listing the labels in the requested order. 2, 1, 3
(2: 5.9 nM, 1: 12 nM, 3: 53 nM)

---

# assay-target: Renin (Homo sapiens)
# experimental-details: In vitro activity against human renin (pH 6.0)
pIC50: −log10 of the molar value.
quantity-measured: pIC50

Worked set:
CC(C)[C@H](C[C@H](O)[C@H](CC1CCCCC1)NC(=O)[C@H](Cc1c[nH]cn1)NC(=O)[C@H](Cc1ccccc1)NC(=O)OC(C)(C)C)NC(=O)OCCc1ccccn1 : 8.89
CCCCNC(=O)[C@@H](C[C@H](O)[C@H](CC1CCCCC1)NC(=O)[C@H](CCCC)N[C@@H](Cc1ccccc1)C(=O)N1CCC(OCOC)CC1)C(C)C : 8.74
CCCC[C@H](O[C@@H](Cc1ccccc1)C(=O)N1CCC(OCOC)CC1)C(=O)N[C@@H](CC1CCCCC1)[C@@H](O)C[C@H](C(=O)N(C)CCCN(C)C)C(C)C : 7.24
CCCC[C@H](O[C@@H](Cc1ccccc1)C(=O)N1CCC(OCOC)CC1)C(=O)N[C@@H](CC1CCCCC1)[C@@H](O)C[C@H](NC(=O)OCCN1CCCC1)C(C)C : 8.60
CCCC[C@H](O[C@@H](Cc1ccccc1)C(=O)N1CCC(OCOC)CC1)C(=O)N[C@@H](CC1CCCCC1)[C@@H](O)C[C@H](C(=O)N1CCCN(C)CC1)C(C)C : 7.77
CCCC[C@H](O[C@@H](Cc1ccccc1)C(=O)N1CCC(OCOC)CC1)C(=O)N[C@@H](CC1CCCCC1)[C@@H](O)C[C@H](C(=O)NCCCN1CCOCC1)C(C)C : 8.62

P. CCCC[C@H](O[C@@H](Cc1ccccc1)C(=O)N1CCC(OCOC)CC1)C(=O)N[C@@H](CC1CCCCC1)[C@@H](O)C[C@H](C(=O)N(C)CCN(C)C)C(C)C
Q. CCCC[C@H](O[C@@H](Cc1ccccc1)C(=O)N1CCC(OCOC)CC1)C(=O)N[C@@H](CC1CCCCC1)[C@@H](O)C[C@H](N)C(C)C
Would you let me know which has the greater pIC50 value, P or Q ? Choose, then provide that item's label. P
(P: 7.52, Q: 6.96)

---

# experimental-details: Average peak plasma drug concentration after iv dose of 0.3 mg/kg in ferrets.
# condition-label: ferret, plasma
quantity-measured: Cmax (ng/mL)

Worked set:
CCCC[C@H](O[C@@H](Cc1ccccc1)C(=O)N1CCC(OCOC)CC1)C(=O)N[C@@H](CC1CCCCC1)[C@@H](O)C[C@H](C(=O)NCCCN1CCOCC1)C(C)C : 2110
CCCC[C@H](O[C@@H](Cc1ccccc1)C(=O)N1CCC(OCOC)CC1)C(=O)N[C@@H](CC1CCCCC1)[C@@H](O)C[C@H](NC(=O)OCCN(C)C)C(C)C : 1010
CCCC[C@H](O[C@@H](Cc1ccccc1)C(=O)N1CCC(OCOC)CC1)C(=O)N[C@@H](CC1CCCCC1)[C@@H](O)C[C@H](C(=O)NCCCN(C)C)C(C)C : 2990

I. CCCCNC(=O)[C@@H](C[C@H](O)[C@H](CC1CCCCC1)NC(=O)[C@H](CCCC)N[C@@H](Cc1ccccc1)C(=O)N1CCC(OCOC)CC1)C(C)C
II. CCCC[C@H](O[C@@H](Cc1ccccc1)C(=O)N1CCC(OCOC)CC1)C(=O)N[C@@H](CC1CCCCC1)[C@@H](O)C[C@H](C(=O)NCCCn1ccnc1)C(C)C
For I and II , which recorded Cmax is lower? Choose, then provide that item's label. I
(I: 2230 ng/mL, II: 3390 ng/mL)

---

# assay-target: Renin (Homo sapiens)
# Format: cell-free, Plasma
pIC50: −log10 of the molar value.
quantity-measured: pIC50

a. CCCNC(=O)N[C@@H](C[C@H](O)[C@H](CC1CCCCC1)NC(=O)[C@H](Cc1c[nH]cn1)NC(=O)[C@H](Cc1ccccc1)NC(=O)OC(C)(C)C)C(C)C
b. CCCC[C@H](O[C@@H](Cc1ccccc1)C(=O)N1CCC(OCOC)CC1)C(=O)N[C@@H](CC1CCCCC1)[C@@H](O)C[C@H](NC(=O)OCCCN(C)C)C(C)C
c. CCCC[C@H](N[C@@H](Cc1ccccc1)C(=O)N1CCC(OCOC)CC1)C(=O)N[C@@H](CC1CCCCC1)[C@@H](O)C[C@H](C(=O)NCCCN(C)C)C(C)C
Given 3 compounds, produce a descending ranking by pIC50. Thanks in advance for listing the labels in the requested order. c, b, a
